Where these numbers come from: paper PMC7508794

molecular target: AUF1-RRM1,2 (UniProt Q14103-4 70-239); experiment: ITC; DMA-155, RNA:DMA 1:5; ITC: 10 mM K2HPO4, 20 mM KCl, 0.5 mM EDTA, 4 mM BME, pH 6.5, 25 C; lysate pull-down: 5 mM HEPES pH 7.1, 40 mM KCl, 0.1 mM EDTA, 2 mM MgCl2, 2 mM DTT, 0.25 mg/ml heparin, 30 C; settings: protein: recombinant; tags: N-terminal His6, cleaved with TEV; hairpin with 5-nt bulge and 7-nt apical loop
Sequence (Q14103 other isoform, or with tags, fused parts or gaps): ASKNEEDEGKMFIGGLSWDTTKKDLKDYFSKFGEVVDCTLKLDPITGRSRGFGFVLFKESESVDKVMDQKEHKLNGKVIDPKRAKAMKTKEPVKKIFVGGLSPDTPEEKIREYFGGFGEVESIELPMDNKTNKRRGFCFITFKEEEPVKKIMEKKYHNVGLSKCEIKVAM
endpoint name: pKd
Notebook: values listed as pKd are -log10 of the concentration (mol/L).

q: Please look up its pKd: GGAUCAAUAGCAGGUGUGGCACACCAGUCAUACCUUGAUCC (structured_RNA) [EV71 SLII (SLII2231)]
a: 6.41
